# System: epimastigote forms of T. cruzi (Y strain)
# method notes: Antitrypanosomal assay
# Type: cell-based, Trypanosoma cruzi
# measurement context: read-out: Epimastigote IC50; epimastigote form of T. cruzi Y strain, 96 h at 28 °C, parasite counting; mean ± SD
endpoint label: IC50 (µM)
Give just the numeric value; µM need not be written.

Please report the recorded IC50 for C[C@@]12CCC[C@@](C)(C(=O)O)[C@H]1CC[C@@]13C[C@@H](CC[C@H]12)[C@](C)(N=C=S)C3 .
58.2

----------
Listed here: items and their measured pIC50.
# Test system: epimastigote forms of T. cruzi (Y strain)
# method notes: Antitrypanosomal assay
# Assay type: cell-based, Trypanosoma cruzi
# measurement context: Trypanosoma cruzi, 96 h, epimastigote form of T. cruzi Y strain, 96 h at 28 °C, parasite counting; mean ± SD; read-out: Epimastigote IC50
Just the number, please; pIC50 means minus log10 of the concentration in mol/L.

Examples with answers:
* C[C@@]12CCC[C@@](C)(C(=O)O)[C@H]1CC[C@@]13C[C@@H](CC[C@H]12)[C@](C)(NC(=S)N/N=C/c1cccc(Cl)c1)C3 | 4.63
* C[C@@]12CCC[C@@](C)(C(=O)O)[C@H]1CC[C@@]13C[C@@H](CC[C@H]12)[C@](C)(NC(=S)N/N=C/c1cccc([N+](=O)[O-])c1)C3 | 4.72

// next item, pIC50 requested
Suppose we examine the compound C[C@@]12CCC[C@@](C)(C(=O)O)[C@H]1CC[C@@]13C[C@@H](CC[C@H]12)[C@](C)(SC#N)C3 ; what pIC50 value has been reported?
4.36
